Taken from patent US20220073604A1.

target: IL-6 (bact-hIL-6, euk-hIL-6 and bact-cy IL-6; 'average binding' of Table 21); test: average binding level in the off-rate screen (unit not given; n = 1)
test-readout: average binding
In your answer, state the number alone without any accompanying words.

QUERY: Any idea what its average binding is? The binder is Fab 111A7 with the CDR3 methionine changed to N (Fab, V domains shown) VH: EVQLLESGGGLVQPGGSLRLSCAASGFTFSSYAMSWVRQAPGKGPEWVSRISAGGGSTYYGDSVKGRFTISRDNSKNTLYLQMNSLRAEDTAVYYCANRAGWGNGDYWGQGTLVTVSS VL: QTVVTQEPSFSVSPGGTVTLTCGLSSGSVTASNYPGWYQQTPGQAPRALIYSTNDRHSGVPDRFSGSISGNKAALTITGAQAEDEADYYCALDIGDITEFGGGTQLTVL
RESULT: 137

QUERY: And for Fab 111A7 with the CDR3 methionine changed to R (Fab, V domains shown) VH: EVQLLESGGGLVQPGGSLRLSCAASGFTFSSYAMSWVRQAPGKGPEWVSRISAGGGSTYYGDSVKGRFTISRDNSKNTLYLQMNSLRAEDTAVYYCANRAGWGRGDYWGQGTLVTVSS VL: QTVVTQEPSFSVSPGGTVTLTCGLSSGSVTASNYPGWYQQTPGQAPRALIYSTNDRHSGVPDRFSGSISGNKAALTITGAQAEDEADYYCALDIGDITEFGGGTQLTVL ?
RESULT: 64

QUERY: And for Fab 111A7 with the CDR3 methionine changed to F (Fab, V domains shown) VH: EVQLLESGGGLVQPGGSLRLSCAASGFTFSSYAMSWVRQAPGKGPEWVSRISAGGGSTYYGDSVKGRFTISRDNSKNTLYLQMNSLRAEDTAVYYCANRAGWGFGDYWGQGTLVTVSS VL: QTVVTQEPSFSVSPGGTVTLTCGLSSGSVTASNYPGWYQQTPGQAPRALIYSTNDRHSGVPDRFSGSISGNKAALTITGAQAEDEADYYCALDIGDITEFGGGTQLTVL ?
RESULT: 144
